assay: luciferase luminescence interference by compounds, confirmation, artefact control for SENP inhibitor project, biochemical, single concentration, SENP8 reaction pre-completed (AID 488919);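 further: plate controls were DMSO wells with completed reaction for no effect and substrate without enzyme for full effect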
measurement_parameters: Pre-incubated SENP8/Z-RLRGG-aminoluciferin, at 12.5 µM, stronger effect = higher value
This is one part of the list.
Here the recorded inhibition is given for each entry.
experimental_readout: inhibition (%)

- molecule: "O=C(Nc1ccccc1)c1ccc2c(c1)OCO2"
  experimental_readout: "inhibition"
  numeric_result: 54.8
- molecule: "Cc1ccc(NC(=O)c2sccc2C)cc1[N+](=O)[O-]"
  experimental_readout: "inhibition"
  numeric_result: 82.6
- molecule: "CCOc1ccc(N/C=C/C(=O)c2ccccc2)cc1"
  experimental_readout: "inhibition"
  numeric_result: 19.3
- molecule: "O=C(Nc1ccc(-c2nnc(-c3ccccc3)o2)cc1)C1CCCO1 (stereo unspecified)"
  experimental_readout: "inhibition"
  numeric_result: 8.6
- molecule: "c1ccc2sc(NN=C3CCCC3)nc2c1"
  experimental_readout: "inhibition"
  numeric_result: 15.5
- molecule: "CCOc1ccc2nc(C(=O)N3CCCC(C)C3)sc2c1 (stereo unspecified)"
  experimental_readout: "inhibition"
  numeric_result: 66.4
- molecule: "COc1ccc(-c2cn3ccc(C)cc3n2)cc1"
  experimental_readout: "inhibition"
  numeric_result: 91.2
- molecule: "Cc1ccccc1C(=O)Nc1ccc(N2CCCCCC2)cc1"
  experimental_readout: "inhibition"
  numeric_result: 51.9
- molecule: "Cc1csc(SCC(=O)Nc2sccc2C#N)n1"
  experimental_readout: "inhibition"
  numeric_result: 94.4
- molecule: "CCCOc1ccc(C(=O)NCCc2ccccc2)cc1"
  experimental_readout: "inhibition"
  numeric_result: -5.4
- molecule: "O=C(OCc1ccccc1F)c1ccc2c(c1)OCCO2"
  experimental_readout: "inhibition"
  numeric_result: 78.6
- molecule: "Cc1ccccc1Nc1nc(-c2cccnc2)cs1"
  experimental_readout: "inhibition"
  numeric_result: 69.4
- molecule: "C1=C(CCNc2ncnc3c2cnn3-c2ccccc2)CCCC1"
  experimental_readout: "inhibition"
  numeric_result: -4.4
- molecule: "COc1ccccc1N=Cc1c(O)c2ccccc2oc1=O"
  experimental_readout: "inhibition"
  numeric_result: 27.7
- molecule: "CN(CC(=O)Nc1ccc(Cl)cc1)C(=O)CNC(=O)c1ccc2ccccc2c1"
  experimental_readout: "inhibition"
  numeric_result: 1.1
- molecule: "CCNc1nc(N)nc(Oc2ccc(OCC)nn2)n1"
  experimental_readout: "inhibition"
  numeric_result: 0.2
- molecule: "Cc1ccc(-c2cn3cc(C)ccc3n2)cc1"
  experimental_readout: "inhibition"
  numeric_result: 39.4
- molecule: "O=C(O)/C=C/C(=O)NNc1ccc([N+](=O)[O-])cc1"
  experimental_readout: "inhibition"
  numeric_result: 79.3
- molecule: "FC(F)(F)c1ccnc(Oc2ccc(C3=NCCS3)cc2)c1"
  experimental_readout: "inhibition"
  numeric_result: 17
- molecule: "O=C(Nc1ccc2sc3ccccc3c(=O)c2c1)c1ccccc1Cl"
  experimental_readout: "inhibition"
  numeric_result: 4.3
- molecule: "COc1ccc(/C=C2/SC(=O)N(CCCCCC(=O)Nc3ccccc3C(=O)O)C2=S)cc1"
  experimental_readout: "inhibition"
  numeric_result: 8.6
- molecule: "COc1ccc(N=C(C)c2sc3ccccc3c2O)cc1"
  experimental_readout: "inhibition"
  numeric_result: -5.1
- molecule: "COc1ccc(-n2ncc3c(SCC(=O)NNC(C)=O)ncnc32)cc1"
  experimental_readout: "inhibition"
  numeric_result: 5.9
- molecule: "COc1cccc(-c2nc3cc(C)ccc3o2)c1"
  experimental_readout: "inhibition"
  numeric_result: 94.2
- molecule: "c1ccc(-c2noc(-c3cccs3)n2)nc1"
  experimental_readout: "inhibition"
  numeric_result: 90.1
- molecule: "COc1cccc2sc(Nc3nc(C)c(C(C)=O)s3)nc12"
  experimental_readout: "inhibition"
  numeric_result: 72.3

* * *

Here the recorded inhibition is given for each entry.
tested_target: PEG-3 (UniProt Q6IN02)
Sequence (Q6IN02 whole entry, looked up): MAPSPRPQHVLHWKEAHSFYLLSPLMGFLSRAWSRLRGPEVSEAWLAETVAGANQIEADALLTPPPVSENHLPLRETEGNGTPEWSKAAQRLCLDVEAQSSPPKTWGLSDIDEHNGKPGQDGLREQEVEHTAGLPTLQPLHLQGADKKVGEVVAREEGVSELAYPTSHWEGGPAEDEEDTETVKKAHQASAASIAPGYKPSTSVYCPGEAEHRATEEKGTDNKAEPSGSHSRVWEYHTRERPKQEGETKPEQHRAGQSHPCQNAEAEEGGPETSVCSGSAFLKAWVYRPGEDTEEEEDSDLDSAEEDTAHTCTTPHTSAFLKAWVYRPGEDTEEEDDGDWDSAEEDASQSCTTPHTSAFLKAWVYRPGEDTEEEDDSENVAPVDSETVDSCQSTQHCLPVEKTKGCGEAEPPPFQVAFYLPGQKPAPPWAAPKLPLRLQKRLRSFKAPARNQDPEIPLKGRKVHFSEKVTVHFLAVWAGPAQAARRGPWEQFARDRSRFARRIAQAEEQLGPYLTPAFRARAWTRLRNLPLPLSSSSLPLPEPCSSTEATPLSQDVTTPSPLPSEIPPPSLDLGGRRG
assay: Peg3 promoter luciferase inhibitors, potency, dose response, cell-based, HeLa, CREF/GAPDH counter-screen panel (AID 624167)
measurement_parameters: CREF/GAPDH counter-screens; HeLa PEG-Prom luciferase reporter, overnight, run 1, dose range 1, at 100 µM (top of the series) unless noted
experimental_readout: inhibition (%)

- molecule: "COc1ccc(-c2nc3c(C(=O)NCCN(C)C)cccc3c3ccccc23)cc1"
  numeric_result: 102
- molecule: "N/C(=N\\OC(=O)c1ccccc1)C(Cc1ccccc1)C(=O)NOC(=O)c1ccccc1 (centres undefined)"
  numeric_result: 97.4
- molecule: "CCOc1ccc2nc(NC(=O)c3ccccn3)sc2c1"
  numeric_result: 88
- molecule: "Cc1nc(-c2ccc(F)cc2)c(CC(=O)N(C)CC(=O)Nc2ccc(Cl)c(C(F)(F)F)c2)s1"
  numeric_result: 99.8
- molecule: "CCN(CC)CCn1c2ccccc2c2cnc(N)c(C#N)c21"
  numeric_result: 101
- molecule: "Cc1csc(NC(=O)c2ccc(N3CCCC3=O)cc2)n1"
  numeric_result: 88.6
- molecule: "CCn1nc(C)cc1-c1nnc(Sc2ncc([N+](=O)[O-])s2)n1C"
  numeric_result: 102
- molecule: "c1ccc(CN=C(NCc2ccccc2)NCc2ccccc2)cc1"
  numeric_result: 99.7
- molecule: "COc1ccc(-c2sc3ccccc3c2-c2ccc(OCCN3CCCCC3)cc2)cc1"
  numeric_result: 99.5
- molecule: "Cc1ccc(C)c(OCC(O)CN2CCC(CN3C(=O)c4cccc5cccc(c45)C3=O)CC2)c1 (centres undefined)"
  numeric_result: 99.2
- molecule: "O=C1C=CC(=O)N1c1ccc(-c2nc3ccccc3o2)cc1"
  numeric_result: 99.3
- molecule: "CC1=C(CC[C@@H](C)CO)OC2CC3C4CCC5CC(O)CCC5(C)C4CC(=O)C3(C)C12 (some centres undefined)"
  numeric_result: 88.8
- molecule: "COc1ccccc1CCNC(=O)C1CCN(c2nnc(C)c3c(C)n(-c4ccc(C)cc4)nc23)CC1"
  numeric_result: 99
- molecule: "Oc1cccc(C(Nc2nccs2)c2ccc3cccnc3c2O)c1 (centres undefined)"
  numeric_result: 97.4
- molecule: "O=c1c2ccccc2oc2cc(C#CC3(O)CCCCC3)ccc12"
  numeric_result: 102
- molecule: "Cc1nn(-c2nc3ccccc3[nH]2)c(=O)c2ccccc12"
  numeric_result: 97.5
- molecule: "O=C(Cc1csc(Nc2nc(=S)[nH]c3ccccc23)n1)NCc1ccccc1Cl"
  numeric_result: -6.11
- molecule: "CC1(C)CC(NC(=O)c2sc3cc(Cl)ccc3c2Cl)CC(C)(C)N1"
  numeric_result: 99.4
- molecule: "CCCCCCN1C=C/C(=C\\C=C(C#N)C#N)c2ccccc21"
  numeric_result: 54.3
- molecule: "CN(C)CCNc1ncnc2c1ncn2[C@H]1CN(Cc2ccc(-c3ccccc3)cc2)C[C@@H](CO)O1"
  numeric_result: 100
- molecule: "Cc1cc(C=C2C(=O)c3ccccc3C2=O)c(C)n1-c1ccccc1"
  numeric_result: 62.9
- molecule: "COc1ccc(-c2cc(C(=O)N(C)Cc3ccccc3F)c3ccccc3n2)cc1OC"
  numeric_result: 97.1
- molecule: "Cc1cccc(CS(=O)(=O)c2ncc(Cl)c(C(=O)Nc3ccc(F)cc3)n2)c1"
  numeric_result: 99.1
- molecule: "CCOC(=O)c1c(NC(=O)COc2ccccc2F)sc2c1CC(C)(C)NC2(C)C"
  numeric_result: 89.1
- molecule: "CCCN1C=CC(=C2C(=O)c3ccccc3C2=O)C=C1"
  numeric_result: 102
- molecule: "CN(c1ccc2nc3ccccc3c(=O)n2n1)C1CCCCC1"
  numeric_result: 98.5
- molecule: "O=c1cc2oc3cc(O)c(O)cc3c(-c3ccccc3[N+](=O)[O-])c-2cc1O"
  numeric_result: 93.5
- molecule: "O=C(Nc1ccc(-c2cn3ccsc3n2)cc1)c1ccc(F)c(S(=O)(=O)N2CCOCC2)c1"
  numeric_result: 0.918

* * *

Here the recorded inhibition is given for each entry.
assay: inhibitors of PAF-induced NFkB signaling in CF airway cells, dose response, cell-based, uHTS hits, panel, cytotoxicity readout (AID 624344)
measurement_parameters: CF bronchial epithelial cells, PAF-induced NFkB reporter inhibition, with PAF, run 1; at 79 µM (top of the series) unless noted
experimental_readout: inhibition (%)

- molecule: "Clc1ccc(CSc2nnc(-c3ccncc3)o2)cc1"
  numeric_result: 102
- molecule: "CC(=O)Nc1nc(C)c(-c2csc(Nc3cccc(C(C)=O)c3)n2)s1"
  numeric_result: 105
- molecule: "Cc1ccc2occ(/C=N/NC(=O)c3ccccc3C)c(=O)c2c1"
  numeric_result: 102
- molecule: "CCC(CO)Oc1cc(NCc2ccc(Cl)cc2Cl)c2ncn(C(C)C)c2c1 (stereo unspecified)"
  numeric_result: 105
- molecule: "O=C1C(=Cc2ccccc2[N+](=O)[O-])Cc2ccccc21"
  numeric_result: 68.5
- molecule: "COc1cccc(-c2nnc3n2N=C(C(C)(C)C)CS3)c1"
  numeric_result: 105
- molecule: "CCCCCCc1cc2cc(C(=O)OCC)c(=O)oc2cc1O"
  numeric_result: 106
- molecule: "CCOC(=O)c1ccc(NC(=O)Nc2nncs2)cc1"
  numeric_result: 83.2
- molecule: "CCc1ccc(Nc2n[n+](-c3ccccc3)c(-c3c(Cl)cccc3Cl)s2)cc1"
  numeric_result: 116
- molecule: "CN(C)c1ccc(-c2nn3c(-c4ccccc4Cl)nnc3s2)cc1"
  numeric_result: 102
- molecule: "COc1ccc(C(=O)N[C@H](C(=O)Nc2nc3ccccc3[nH]2)C(C)C)cc1"
  numeric_result: 99.8
